Target: T1, Human IL-18Rα ectodomain (amino acids 19-329), biotinylated (human, UniProt Q13478 19-329, biotin on the AviTag (BirA ligase))
T1 construct: range 19-329; Secreted from insect cells (gp67 signal peptide removed); also called hIL-18Rα; hIL18Rα
T1 sequence: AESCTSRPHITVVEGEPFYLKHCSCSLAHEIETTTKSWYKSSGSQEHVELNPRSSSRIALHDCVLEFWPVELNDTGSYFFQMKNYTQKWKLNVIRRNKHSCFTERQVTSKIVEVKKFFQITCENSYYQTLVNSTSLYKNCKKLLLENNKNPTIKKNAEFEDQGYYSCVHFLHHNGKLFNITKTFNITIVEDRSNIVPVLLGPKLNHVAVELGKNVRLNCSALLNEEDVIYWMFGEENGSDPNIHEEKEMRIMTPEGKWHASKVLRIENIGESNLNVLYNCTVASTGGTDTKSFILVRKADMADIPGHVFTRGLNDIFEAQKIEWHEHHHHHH
Assay: SPR (Biacore T100), hIL-18Rα as surface ligand, 1:1 Langmuir
measure.name: kon
The reply must contain the numeric value and, after it, the unit.

Query: Specify measured kon for SEQ ID NO: 87 (second generation human DR-IL-18 variant 6-31) (ligand, Engineered variant; recombinant soluble analyte in SPR and cell assays) YFGKLESKLSVIRNLNDQVLFIDQGNRPLFEDMTDSDCRDNAPRTIFIISKYGDSGARGLAVTISVKCEKISTLSCENKIISFKEMNPPDNIKDTKSDIIFFERDVPGHSGKVQFESSSYEGYFLACEKERDLFKLILKKEDELGDRSIMFTVQNED .
Result: 218000 M⁻¹ s⁻¹

Query: Specify measured kon for SEQ ID NO: 89 (second generation human DR-IL-18 variant 6-12) (ligand, Engineered variant; recombinant soluble analyte in SPR and cell assays) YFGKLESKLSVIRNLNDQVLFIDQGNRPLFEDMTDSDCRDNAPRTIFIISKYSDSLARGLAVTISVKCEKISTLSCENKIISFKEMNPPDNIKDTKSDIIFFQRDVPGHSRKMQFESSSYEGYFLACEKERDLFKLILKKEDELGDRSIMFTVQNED .
Result: 495000 M⁻¹ s⁻¹

Query: Specify measured kon for SEQ ID NO: 91 (second generation human DR-IL-18 variant 6-29) (ligand, Engineered variant; recombinant soluble analyte in SPR and cell assays) YFGKLESKLSVIRNLNDQVLFIDQGNRPLFEDMTDSDCRDNAPRTIFIISKYSDSRARGLAVTISVKCEKISTLSCENKIISFKEMNPPDNIKDTKSDIIFFQRNVPGHGRKMQFESSSYEGYFLACEKERDLFKLILKKEDELGDRSIMFTVQNED .
Result: 575000 M⁻¹ s⁻¹

Next, consider the following binder.
Query: Specify measured kon for SEQ ID NO: 90 (second generation human DR-IL-18 variant 6-27) (ligand, Engineered variant; recombinant soluble analyte in SPR and cell assays) YFGKLESKLSVIRNLNDQVLFIDQGNRPLFEDMTDSDCRDNAPRTIFIISKYSDSRARGLAVTISVKCEKISTLSCENKIISFKEMNPPDNIKDTKSDIIFFARSVPGHGRKTQFESSSYEGYFLACEKERDLFKLILKKEDELGDRSIMFTVQNED .
Result: 631000 M⁻¹ s⁻¹
